# EXPERIMENT NOTES: Intracellular ATP levels
# Type: cell-based
# ASSAY CONTEXT: rat, NRK cells, 6 HR, read-out: ATP TC50
Can you tell me CC50 at 6 h for the items I'm about to list?
One number for each entry, in µM.

Input line: So what's the measured CC50 at 6 h for this one? CC[C@@]1(O)C(=O)OCc2c1cc1n(c2=O)Cc2cc3ccccc3nc2-1 [CAMPTOTHECIN, Camptothecin]
Output line: 300

Others:
Input line: Fill in: CC50 at 6 h of C=C(C)[C@H]1Cc2c(ccc3c2O[C@@H]2COc4cc(OC)c(OC)cc4[C@@H]2C3=O)O1 [ROTENONE, Rotenone] is ___
Output line: 10

###

# EXPERIMENT NOTES: MemTox membrane leakage (AK / α-GST)
# Assay type: cell-based, rat
# ASSAY CONTEXT: rat
Record form. Attribute: CC50 at 24 h. Fill in for each entry.
Numbers only, in µM.

Look over these answered cases.
Input line: I would be grateful if you could share the reported CC50 at 24 h for `O=C1c2c(O)ccc(O)c2C(=O)c2c(NCCNCCO)ccc(NCCNCCO)c21` .
Output line: 2

Input line: Next molecule up: COc1cccc2c1C(=O)c1c(O)c3c(c(O)c1C2=O)C[C@@](O)(C(=O)CO)C[C@@H]3O[C@H]1C[C@H](N)[C@@H](O)[C@H](C)O1 [EPIRUBICIN, epirubicin]
Output line: 35

Input line: What about this molecule? `COc1cccc2c1C(=O)c1c(O)c3c(c(O)c1C2=O)C[C@@](O)(C(C)=O)C[C@@H]3O[C@H]1C[C@H](N)[C@H](O)[C@H](C)O1`
Output line: 4

Input line: Moving on to `COc1cccc2c1C(=O)c1c(O)c3c(c(O)c1C2=O)C[C@@](O)(C(=O)CO)C[C@@H]3O[C@H]1C[C@H](N)[C@H](O)[C@H](C)O1`
Output line: 7

Would you kindly look at the next entry?
Input line: For the molecule `CC(C)Nc1cccnc1N1CCN(C(=O)c2cc3cc(NS(C)(=O)=O)ccc3[nH]2)CC1` , what CC50 at 24 h is on record?
Output line: 239

###

# EXPERIMENT NOTES: Solubility in culture medium (nephelometry)
# Assay type: physicochemical
# ASSAY CONTEXT: dosing (complete culture) medium with 20% serum, plasma or biological fluid, kinetic from dmso stock; dosing medium with 20% serum, 37° C.; CM 24 HR; read-out: Highest Soluble Concentration Tested
READOUT NAME: solubility

Provide solubility for all items below, preserving their order.
1. CC(=O)[C@]1(O)Cc2c(O)c3c(c(O)c2[C@@H](O[C@H]2C[C@H](N)[C@H](O)[C@H](C)O2)C1)C(=O)c1ccccc1C3=O
2. CC[C@@]1(O)C(=O)OCc2c1cc1n(c2=O)Cc2cc3ccccc3nc2-1

Output line:
20 µM
10 µM

###

# EXPERIMENT NOTES: Intracellular ATP levels
# Format: cell-based, rat
# ASSAY CONTEXT: rat cardiomyocytes (CM), 24 HR exposure; read-out: ATP TC50
READOUT NAME: CC50 at 24 h (µM)
Numbers only, in µM.

Input line: Given the compound C=C(C)[C@H]1Cc2c(ccc3c2O[C@@H]2COc4cc(OC)c(OC)cc4[C@@H]2C3=O)O1 [ROTENONE, Rotenone] , what is its reported CC50 at 24 h?
Output line: 8
